- experiment summary: Effect of fluorochemical lipophilicity on pharmaceutical solubility (Example 7)
- Type: physicochemical
- cond: organic solvent or mixture; in C8F17C2H5; read-out: Naphthalene
measured endpoint: solubility (µg/mL)
Kindly provide the numeric value in µg/mL only, without the unit symbol.

Recorded solubility (compound c1ccc2ccccc2c1 [Naphthalene] ): 8000

====

- experiment summary: Solubility of prednisone in fluorocarbons (Example 5)
- Assay type: physicochemical
- cond: organic solvent or mixture; in 1,4-Dibromooctafluorobutane; read-out: mg/L of prednisone in fluorochemical matrix
measured endpoint: solubility

Per the record, "C[C@]12C=CC(=O)C=C1CC[C@@H]1[C@@H]2C(=O)C[C@@]2(C)[C@H]1CC[C@]2(O)C(=O)CO" has solubility of < 1 mg/L

====

- experiment summary: Effect of fluorochemical lipophilicity on pharmaceutical solubility (Example 7)
- Type: physicochemical
- cond: c8f17c6h13, organic solvent or mixture
measured endpoint: solubility (µg/mL)
Only the number, expressed in µg/mL, is required.

Short answer for "CCCCCCCCCCCCCCCc1cccc(O)c1" : solubility was 1700

====

- experiment summary: Effect of fluorochemical lipophilicity on pharmaceutical solubility (Example 7)
- Assay type: physicochemical
- cond: organic solvent or mixture; in C6F13C6H13; read-out: Naphthalene
measured endpoint: solubility (mg/mL)
Please respond with the number in mg/mL and leave the unit unwritten.

The reported value for "c1ccc2ccccc2c1" in terms of solubility is 30

====

- experiment summary: Solubility of prednisone in fluorocarbons (Example 5)
- Assay type: physicochemical
- cond: n-c6f13c6h13 with 3% ethanol, organic solvent or mixture; in n-C6F13C6H13 with 3% Ethyl Alcohol; read-out: mg/L of prednisone in fluorochemical matrix
measured endpoint: solubility (mg/L)
Dear colleague, please return just the value in mg/L, with no unit written.

In plain terms, "C[C@]12C=CC(=O)C=C1CC[C@@H]1[C@@H]2C(=O)C[C@@]2(C)[C@H]1CC[C@]2(O)C(=O)CO" has a documented solubility of 80

====

- experiment summary: Solubility in perfluorooctyl ethane (Example 6)
- Assay type: physicochemical
- cond: organic solvent or mixture; saturated in n-C8F17C2H5; read-out: g/L in C8F17C2H5
Classify as follows. Reported solubility greater than or equal to 0.4 g/L: Yes. Reported solubility below: No.

Query: I'd appreciate it if you could say whether "CCCCc1ccccc1" has solubility at least equal to 0.4 g/L.
Response: Yes

Query: Is reported solubility greater than or equal to 0.4 g/L here: "CCc1ccccc1O"
Response: Yes

Query: Say whether "CCCCCCc1ccccc1" shows solubility of 0.4 g/L or more.
Response: Yes

Query: Is solubility at least 0.4 g/L? Consider "c1ccc2ccccc2c1"
Response: Yes

Query: Given "c1ccc2cc3ccccc3cc2c1" , state whether its solubility is at least 0.4 g/L.
Response: No

Query: Test whether the compound "Cc1ccc(O)cc1" records solubility of 0.4 g/L or higher.
Response: Yes

Query: Confirm if solubility reported for the compound "c1ccc2cc3cc4ccccc4cc3cc2c1" is 0.4 g/L or above.
Response: No

====

- experiment summary: Solubility of prednisone in fluorocarbons (Example 5)
- Format: physicochemical
- cond: n-c6f13c2h5 with 3% ethanol, organic solvent or mixture; in n-C6F13C2H5 with 3% Ethyl Alcohol; read-out: mg/L of prednisone in fluorochemical matrix
measured endpoint: solubility (mg/L)
Respond numerically; units are mg/L and should not be typed.

Lab book: solubility of C[C@]12C=CC(=O)C=C1CC[C@@H]1[C@@H]2C(=O)C[C@@]2(C)[C@H]1CC[C@]2(O)C(=O)CO [prednisone] noted as 27

Where these numbers come from: patent US5874481A
